These entries and their values trace back to paper PMC7826789.

tested on: ADCK4; details: Compound Concentration (nM):1000;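 also: KINOMEscan scanMAX binding as percent activity remaining versus control; lower means stronger binding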
# Percent Control per entry
Answer in %, number only, no unit symbol.

Example entries begin here.
COc1ccc2[nH]c3c4[nH]c5ccc(OC)cc5c4c4c(c3c2c1)C(=O)NC4=O [GW296115X] ... 75
COc1cccc(-c2c[nH]c3c(N/N=C/c4ccncc4)ncnc23)c1 [GW814408X] ... 36
Cl.O=C(Nc1ccc(Oc2ccc3[nH]c(NC(=O)c4ccco4)nc3c2)cc1)Nc1cc(C(F)(F)F)ccc1F [GW683134A] ... 100

GET /values?readout=Percent Control&item= COC(=O)Nc1nc2ccc(Oc3ccc(NC(=O)Nc4cc(C(F)(F)F)ccc4F)cc3)cc2s1.Cl [GW693917A]
75

Please give the result for NS(=O)(=O)c1ccc(N/N=C2\C(=O)Nc3ccc(C(=O)NCc4ccncc4)cc32)cc1 [GW300657X] too.
100
